- Measurement Notes: Human HepG2 cell viability assay in 384 well format
- Format: toxicity, cell-based
- Design: dose 125 nL, time 70.5 hour; concentration not given beside the values
- Condition Label: HepG2 cells, read-out: Inhibition
Assignment: determine reported cytotoxicity at 70.5 h for the given compounds.
Field format: number, assumed %, no unit text.

cytotoxicity at 70.5 h lookup needed for `CCOc1cccc2c1OCC(C(=O)NS(=O)(=O)c1ccc(Br)s1)=C2` , thanks.
14.6

cytotoxicity at 70.5 h lookup needed for `CNC(=O)c1cnc(/C=C/c2cc(OC)c(O)c(OC)c2)s1` , thanks.
-12.6

cytotoxicity at 70.5 h lookup needed for Cc1ccn2cc(C(=O)N3CCCC3c3c(C)nn(C)c3C)nc2c1 (stereo unspecified) , thanks.
-7.44

cytotoxicity at 70.5 h lookup needed for CCNC(=O)C1CCCN1S(=O)(=O)c1sc(=O)[nH]c1C (stereo unspecified) , thanks.
-4.2

cytotoxicity at 70.5 h lookup needed for `CS(=O)(=O)NCCCn1ccc2ccccc21` , thanks.
-13.2

cytotoxicity at 70.5 h lookup needed for Cc1ccc(-c2cc(C)nc(C3CCCN3S(C)(=O)=O)n2)cc1 (stereo unspecified) , thanks.
-8.04

cytotoxicity at 70.5 h lookup needed for `O=C(NC1CC1)[C@@H]1CCO[C@@H]2CCN(Cc3ccsc3)C[C@H]21` , thanks.
-2.46

cytotoxicity at 70.5 h lookup needed for `COc1coc(C(=O)Nc2nc(C)cs2)cc1=O` , thanks.
-15.8

cytotoxicity at 70.5 h lookup needed for CCCN(Cc1nc(-c2ccoc2)oc1C)CC1CCCO1 (stereo unspecified) , thanks.
-6

cytotoxicity at 70.5 h lookup needed for `Cc1noc([C@H]2COC[C@H]3CN(C(=O)Cc4cccc(F)c4)C[C@H]32)n1` , thanks.
-16.4

cytotoxicity at 70.5 h lookup needed for `CC(=O)N1CCN(C(=O)c2ccc(Sc3ccccn3)cc2)CC1` , thanks.
-14

Values from ChEMBL document CHEMBL3507680
